Where these numbers come from: patent US6686469B2

measurement.kind: melting point

These solved cases illustrate the format of a correct answer.
>  <compound>
Fc1cccc(F)c1-c1nccc(-c2ccc(-c3cc(Cl)cc(Cl)c3)cc2)n1

>  <measured.result>
116 to 126 °C

$$$$
>  <compound>
CN(C)c1nc(-c2c(F)cccc2F)ncc1-c1ccc(-c2ccc(C(F)(F)F)cc2)cc1

>  <measured.result>
166 to 168 °C

$$$$

Incoming: # melting point lookup, item `Fc1ccc(-c2ccc(-c3ccnc(-c4c(F)cccc4F)n3)cc2)cc1`
Outgoing: 145 to 146 °C

###

Listed here are compounds together with their documented melting point.

Some compounds with recorded melting point:
>  <molecule.smiles>
Fc1ccc(-c2ccc(-c3ccnc(-c4c(F)cccc4F)n3)cc2)cc1Cl

>  <melting point>
133 to 134 °C

$$$$
>  <molecule.smiles>
Fc1cccc(Cl)c1-c1ncc(-c2ccc(-c3cccc(C(F)(F)F)c3)cc2)cn1

>  <melting point>
187 to 190 °C

$$$$
>  <molecule.smiles>
Fc1ccc(-c2ccc(-c3cnc(-c4c(F)cccc4F)nc3)cc2)cc1

>  <melting point>
212 to 213 °C

$$$$
>  <molecule.smiles>
COc1ccc(-c2ccc(-c3cnc(-c4c(Cl)cccc4Cl)nc3)cc2)cc1

>  <melting point>
242 to 244 °C

$$$$
>  <molecule.smiles>
FC(F)(F)c1ccc(-c2ccc(-c3cnc(-c4c(Cl)cccc4Cl)nc3)cc2)cc1

>  <melting point>
207 to 208 °C

$$$$

Incoming: What melting point value was documented for this compound, `CCNc1nc(-c2c(F)cccc2F)ncc1-c1ccc(-c2ccc(C(F)(F)F)cc2)cc1` ?
Outgoing: 189 to 190 °C

Incoming: Name the reported melting point value associated with the compound `CCSc1nc(-c2c(F)cccc2F)ncc1-c1ccc(-c2cc(Cl)cc(Cl)c2)cc1`
Outgoing: 154 to 156 °C

Incoming: Please look up its melting point: `CCSc1nc(-c2c(F)cccc2F)ncc1-c1ccc(-c2ccc(C(F)(F)F)cc2)cc1`
Outgoing: 145 to 146 °C
